Biological target: T1, polypeptide GC3pep (human)
T1 construct: also called membrane proximal polypeptide GC3pep
T1 peptide: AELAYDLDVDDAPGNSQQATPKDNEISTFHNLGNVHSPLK
Assay: ELISA, GC3pep coated, antibody 0.001 nM
Reported OD450 nm values for a set of binders
Respond numerically; units are OD450 nm and should not be typed.

binder	unit.abbreviation	OD450 nm
F2.154.1 (antibody, human IgG1, kappa, V domains shown, human-murine chimeric antibody) VH: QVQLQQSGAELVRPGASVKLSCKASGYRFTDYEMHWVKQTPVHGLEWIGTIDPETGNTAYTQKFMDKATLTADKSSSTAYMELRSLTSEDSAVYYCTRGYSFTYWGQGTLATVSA VL: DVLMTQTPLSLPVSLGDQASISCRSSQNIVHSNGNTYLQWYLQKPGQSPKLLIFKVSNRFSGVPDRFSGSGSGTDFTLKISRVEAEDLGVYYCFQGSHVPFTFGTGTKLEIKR	OD450 nm	0.06
F1.2.14 (antibody, human IgG1, kappa, V domains shown, human-murine chimeric antibody) VH: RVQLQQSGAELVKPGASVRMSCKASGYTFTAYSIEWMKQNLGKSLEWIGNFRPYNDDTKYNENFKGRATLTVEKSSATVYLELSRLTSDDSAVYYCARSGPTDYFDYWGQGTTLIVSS VL: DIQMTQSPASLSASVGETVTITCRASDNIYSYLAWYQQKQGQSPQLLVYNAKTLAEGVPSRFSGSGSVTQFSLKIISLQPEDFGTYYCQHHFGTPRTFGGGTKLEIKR	OD450 nm	0.05

Proceed to the following item.
(Q) Can you look up the measured OD450 nm of F2.39.2 (antibody, human IgG1, kappa, V domains shown, human-murine chimeric antibody) VH: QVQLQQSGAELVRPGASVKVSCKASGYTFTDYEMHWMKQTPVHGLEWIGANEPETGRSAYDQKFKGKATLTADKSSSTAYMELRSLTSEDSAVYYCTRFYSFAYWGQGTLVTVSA VL: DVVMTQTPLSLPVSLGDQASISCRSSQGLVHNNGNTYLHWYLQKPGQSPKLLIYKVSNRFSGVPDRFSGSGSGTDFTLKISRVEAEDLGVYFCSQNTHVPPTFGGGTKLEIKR for me?
(A) 0.09
